Just for reference, patent US20160024071A1 is where these values come from.

- tested system: recombinant GST-LRRK2 (wild-type) (Homo sapiens, UniProt Q5S007)
- Construct: GST (N)
- Sequence (Q5S007 whole entry): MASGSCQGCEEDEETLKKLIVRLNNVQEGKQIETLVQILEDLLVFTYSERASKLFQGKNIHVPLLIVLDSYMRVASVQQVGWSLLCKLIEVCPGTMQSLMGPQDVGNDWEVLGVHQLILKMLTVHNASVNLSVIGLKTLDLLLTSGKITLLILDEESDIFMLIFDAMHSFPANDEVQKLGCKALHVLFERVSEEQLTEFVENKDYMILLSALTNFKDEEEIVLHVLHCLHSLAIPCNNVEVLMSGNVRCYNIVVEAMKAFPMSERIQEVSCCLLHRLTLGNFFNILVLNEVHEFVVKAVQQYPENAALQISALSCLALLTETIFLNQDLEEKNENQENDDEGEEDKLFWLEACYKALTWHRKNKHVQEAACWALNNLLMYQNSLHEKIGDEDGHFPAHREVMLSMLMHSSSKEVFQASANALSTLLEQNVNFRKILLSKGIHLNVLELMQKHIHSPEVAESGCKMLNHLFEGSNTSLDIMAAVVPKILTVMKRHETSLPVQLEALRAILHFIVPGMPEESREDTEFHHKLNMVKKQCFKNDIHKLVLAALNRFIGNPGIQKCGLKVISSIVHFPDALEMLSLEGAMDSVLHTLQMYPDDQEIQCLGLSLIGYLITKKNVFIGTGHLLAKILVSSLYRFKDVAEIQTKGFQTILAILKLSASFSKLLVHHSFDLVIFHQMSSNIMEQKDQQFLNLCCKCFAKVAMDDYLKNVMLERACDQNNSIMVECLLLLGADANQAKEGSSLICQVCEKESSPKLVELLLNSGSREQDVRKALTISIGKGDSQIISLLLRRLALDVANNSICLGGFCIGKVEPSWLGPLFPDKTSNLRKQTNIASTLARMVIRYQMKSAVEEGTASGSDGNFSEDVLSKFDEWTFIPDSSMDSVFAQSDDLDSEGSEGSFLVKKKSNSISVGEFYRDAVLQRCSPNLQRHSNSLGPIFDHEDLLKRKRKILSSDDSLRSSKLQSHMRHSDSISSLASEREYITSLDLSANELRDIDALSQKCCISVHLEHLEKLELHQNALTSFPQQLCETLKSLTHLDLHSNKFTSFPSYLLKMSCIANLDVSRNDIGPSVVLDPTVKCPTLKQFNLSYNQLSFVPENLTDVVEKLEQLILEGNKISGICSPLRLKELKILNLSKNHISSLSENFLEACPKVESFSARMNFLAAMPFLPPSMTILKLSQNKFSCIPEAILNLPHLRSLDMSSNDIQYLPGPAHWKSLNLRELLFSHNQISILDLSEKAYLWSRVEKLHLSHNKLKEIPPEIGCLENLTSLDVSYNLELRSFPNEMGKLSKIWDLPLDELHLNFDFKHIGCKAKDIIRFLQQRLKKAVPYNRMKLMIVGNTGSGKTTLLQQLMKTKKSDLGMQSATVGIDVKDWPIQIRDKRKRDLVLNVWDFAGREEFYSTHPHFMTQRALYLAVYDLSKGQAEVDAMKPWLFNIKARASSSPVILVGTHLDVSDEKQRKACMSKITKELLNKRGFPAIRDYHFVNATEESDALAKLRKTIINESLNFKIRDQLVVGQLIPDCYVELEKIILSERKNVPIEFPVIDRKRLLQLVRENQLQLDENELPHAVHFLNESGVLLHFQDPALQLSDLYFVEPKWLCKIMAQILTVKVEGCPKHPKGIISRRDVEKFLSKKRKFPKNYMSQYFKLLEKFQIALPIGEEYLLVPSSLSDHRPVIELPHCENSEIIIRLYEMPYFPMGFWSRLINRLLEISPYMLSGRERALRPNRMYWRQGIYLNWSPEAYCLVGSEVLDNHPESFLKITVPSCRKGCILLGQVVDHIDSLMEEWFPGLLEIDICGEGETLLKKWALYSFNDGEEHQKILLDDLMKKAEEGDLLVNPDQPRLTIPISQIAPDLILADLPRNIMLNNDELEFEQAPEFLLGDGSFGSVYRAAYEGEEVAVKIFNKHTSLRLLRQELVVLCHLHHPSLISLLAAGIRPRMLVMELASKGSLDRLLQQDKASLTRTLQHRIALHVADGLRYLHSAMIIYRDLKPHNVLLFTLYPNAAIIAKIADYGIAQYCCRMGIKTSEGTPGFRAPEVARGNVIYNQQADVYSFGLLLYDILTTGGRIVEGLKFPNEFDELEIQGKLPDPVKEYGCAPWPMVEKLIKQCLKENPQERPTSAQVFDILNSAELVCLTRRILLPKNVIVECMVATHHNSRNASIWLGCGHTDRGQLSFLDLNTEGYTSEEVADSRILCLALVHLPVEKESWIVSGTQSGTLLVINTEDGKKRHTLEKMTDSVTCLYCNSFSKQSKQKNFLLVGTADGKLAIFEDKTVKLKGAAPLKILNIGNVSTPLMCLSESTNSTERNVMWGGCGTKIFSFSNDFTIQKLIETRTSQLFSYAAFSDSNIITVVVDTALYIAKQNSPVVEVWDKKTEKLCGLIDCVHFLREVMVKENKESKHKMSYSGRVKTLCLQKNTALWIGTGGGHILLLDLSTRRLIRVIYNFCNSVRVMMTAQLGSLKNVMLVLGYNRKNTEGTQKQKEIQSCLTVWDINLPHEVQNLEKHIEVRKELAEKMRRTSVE
- run description: LRRK2 TR-FRET peptide assay (wild-type)
- condition info: 100 μM ATP, 100 nM biotin-LRRKtide, 10 nM kinase, 60 min room temperature
Threshold 0.001 µM: IC50 strictly smaller gives MET, otherwise NOT MET.

For orientation, consider the following solved cases.
Hi there! Is IC50 for O=C(NN=C1SCC(=O)N1c1ccccc1F)c1ccc(Cl)s1 [Compound 1-10] below 0.001 µM, do you know? MET

Hi there! Is IC50 for CC1(C)SC(=NNC(=O)c2ccc(Cl)s2)N(c2ccccc2)C1=O [Compound 1-14] below 0.001 µM, do you know? NOT MET

Hi there! Is IC50 for O=C(NN=C1SCC(=O)N1c1cccc(F)c1)c1ccc(Cl)s1 [Compound 1-8] below 0.001 µM, do you know? NOT MET

More entries:
Hi there! Is IC50 for CC1SC(=NNC(=O)c2ccc(Cl)s2)N(c2ccccc2)C1=O (stereo not drawn) [Compound 1-7] below 0.001 µM, do you know? NOT MET

Hi there! Is IC50 for COc1ccccc1N1C(=O)CSC1=NNC(=O)c1ccc(Cl)s1 [Compound 1-9] below 0.001 µM, do you know? NOT MET

Hi there! Is IC50 for CC(C)C1SC(=NNC(=O)c2ccc(Cl)s2)N(c2ccccc2)C1=O (stereo not drawn) [Compound 1-13] below 0.001 µM, do you know? NOT MET

Hi there! Is IC50 for O=C(NN=C1SCC(=O)N1c1ccc(F)cc1F)c1ccc(Cl)s1 [Compound 1-12] below 0.001 µM, do you know? MET

Hi there! Is IC50 for O=C(NN=C1SCCN1c1ccccc1)c1ccc(Cl)s1 [Compound 2-19] below 0.001 µM, do you know? NOT MET

Hi there! Is IC50 for O=C(NN=C1SCC(=O)N1c1ccc(F)cc1)c1ccc(Cl)s1 [Compound 1-11] below 0.001 µM, do you know? MET

---

Items are presented alongside their recorded IC50.
- tested system: recombinant GST-LRRK2 (wild-type) (Homo sapiens, UniProt Q5S007)
- Construct: GST (N)
- run description: LRRK2 TR-FRET peptide assay (wild-type)
- condition info: 100 μM ATP, 100 nM biotin-LRRKtide, 10 nM kinase, 60 min room temperature
# answer = value followed by unit

Sample O=C(NN=C1SCC(=O)N1c1ccccc1)c1ccc(Cl)s1 [Compound 1-6] — what was its IC50? 0.9 nM

Sample O=C(NN=C1SCC(=O)N1Cc1ccccc1)c1ccc(Cl)s1 [Compound 1-15] — what was its IC50? 13 nM

Sample O=C(NN=C1SCC(=O)N1c1cccc(C(F)(F)F)c1)c1ccc(Cl)s1 [Compound 1-16] — what was its IC50? 111 nM
